B1: Twister Ribozyme (parent)
chain: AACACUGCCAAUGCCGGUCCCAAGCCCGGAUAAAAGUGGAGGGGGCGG

# Variants of: B1
# Procedure text: self-cleavage, relative activity (ratio to wild type); higher = more cleavage; co-transcriptional
Record 1.0 whenever self-cleavage is at 0.2 or higher; record 0.0 when lower.

Some solved cases for reference:
Mutation label	Cat
A10C G28U	1.0
G43A C46A	1.0
C26U	1.0

Could you verify whether the entry U6A A33C shows self-cleavage of no less than 0.2?
1.0

Now this one: A35U
1.0

Now this one: A1U C14A
0.0

Now this one: A1U G17U
0.0

Now this one: U12C A40U
0.0

Now this one: G13C C21U
0.0

Now this one: C26U A35U
1.0

Now this one: C26A A32U
1.0

Now this one: A11G U31C
1.0

Now this one: G13A C19A
0.0

Now this one: A1G C8A
1.0

Now this one: A1C G39A
0.0

Now this one: C14A A34U
1.0

Now this one: G16C G47U
1.0

Now this one: G41C G48A
1.0

Now this one: G28C A34C
0.0

Now this one: A22G A23C
0.0
